Overview of recorded pIC50 for various compounds
# testedOn: EP2 (Homo sapiens (Human))
# Sequence (P43116 whole entry): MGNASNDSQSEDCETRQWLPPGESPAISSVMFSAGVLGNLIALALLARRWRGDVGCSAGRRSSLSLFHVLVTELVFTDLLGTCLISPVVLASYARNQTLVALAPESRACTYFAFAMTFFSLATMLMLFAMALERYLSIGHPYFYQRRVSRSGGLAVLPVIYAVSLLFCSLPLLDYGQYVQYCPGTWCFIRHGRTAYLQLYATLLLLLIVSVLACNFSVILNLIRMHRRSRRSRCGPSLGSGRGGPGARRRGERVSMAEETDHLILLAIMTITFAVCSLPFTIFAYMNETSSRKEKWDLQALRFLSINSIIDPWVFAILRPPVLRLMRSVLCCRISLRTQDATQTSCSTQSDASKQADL
# measurementNotes: hEP2 cAMP assay (SF295 glioblastoma cells, HTRF cAMP)
# settings: antagonistic activity
Schema: pIC50 number; meaning minus log10 of the concentration expressed in molar units.

Examples with answers:
compound: CCOc1cc(-c2cc(NCCc3ccc4cccc(F)c4c3)ncn2)ccc1CC(=O)O
pIC50: 5.03

compound: C#Cc1cc2ccccc2cc1CCNc1cc(-c2ccc(OCC(=O)O)c(OCC)c2)ncn1
pIC50: 7.05

compound: CCOc1cc(-c2cc(NCCc3ccc4sccc4c3)ncn2)ccc1CC(=O)O
pIC50: 6.28

compound: CCOc1cc(-c2cc(NCCc3cc4ccoc4cc3F)ncn2)ccc1C(=O)O
pIC50: 7.06

Q. // pIC50 lookup, key: "Cc1c(CCNc2cc(-c3ccc(C(=O)O)c(CC(C)C)c3)ncn2)ccc2ccccc12"
A. 6.66

Q. Would you mind doing "CCOc1cc(-c2cc(NCCc3c(OC)cc4occc4c3C)ncn2)sc1C(=O)O" as well?
A. 9.00

====

# testedOn: EP4 (Homo sapiens (Human))
# Sequence (P35408 whole entry): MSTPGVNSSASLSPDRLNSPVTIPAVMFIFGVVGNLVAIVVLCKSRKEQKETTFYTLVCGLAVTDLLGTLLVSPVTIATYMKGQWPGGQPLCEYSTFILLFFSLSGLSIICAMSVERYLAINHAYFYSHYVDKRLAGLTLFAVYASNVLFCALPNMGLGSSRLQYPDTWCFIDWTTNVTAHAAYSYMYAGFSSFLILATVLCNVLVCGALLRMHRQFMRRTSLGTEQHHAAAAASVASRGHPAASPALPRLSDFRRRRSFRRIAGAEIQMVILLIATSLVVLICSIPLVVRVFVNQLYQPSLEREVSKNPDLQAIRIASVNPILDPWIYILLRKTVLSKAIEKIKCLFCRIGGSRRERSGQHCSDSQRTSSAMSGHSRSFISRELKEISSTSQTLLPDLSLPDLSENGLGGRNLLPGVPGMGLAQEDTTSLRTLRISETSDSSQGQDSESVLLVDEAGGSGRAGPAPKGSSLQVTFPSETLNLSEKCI
# measurementNotes: hEP4 cAMP assay (BT549 breast cancer cells, HTRF cAMP)
# Format: cell-based
# settings: antagonistic activity, PGE2 6 nM
Quick reference: pIC50 of the listed items.
In textbook form, pIC50 equals minus log to base ten of the concentration in mol/L.

moleculeSmiles: CSc1cc(-c2cc(NCCc3c(C#N)cc4ccccc4c3C)ncn2)ccc1C(=O)O
testedOn: EP4 (Homo sapiens (Human))
reported: 7.60
--
moleculeSmiles: CCOc1cc(-c2cc(NCCc3cc4c(cc3OC)OCO4)ncn2)ccc1OCC(=O)O
testedOn: EP4 (Homo sapiens (Human))
reported: 6.46

Q. What measured pIC50 goes with "C#Cc1c(CCNc2cc(-c3cc(OCC)c(C(=O)O)s3)ncn2)ccc2ccccc12" ?
A. 8.05

Q. Thanks! And "CCOc1cc(-c2cc(NCCc3c(OC)cc4occc4c3C)ncn2)ccc1OCC(=O)O" ?
A. 7.15

====

# testedOn: EP4 (Homo sapiens (Human))
# measurementNotes: hEP4 cAMP assay (BT549 breast cancer cells, HTRF cAMP)
# Format: cell-based
# settings: antagonistic activity, PGE2 6 nM
# From the text: Human tumor cell lines expressing endogenously either EP4 or EP2 are used and cAMP accumulation in cells upon PGE2 stimulation is monitored. […] As a detection method for cAMP the HTRF (homogeneous time resolved fluorescence) Cisbio kit (HTRF cAMP dynamic 2 kit 20'000 tests Cisbio Cat. #62AM4PEC) was used, which is based on a competitive immunoassay using a Cryptate-labeled anti-cAMP antibody and d2-labeled cAMP. […]
The label Satisfied is reserved for IC50 strictly under 400 nM; Not satisfied covers values equal to or above it.

Reference set (5 entries):
moleculeSmiles: C#Cc1cc2ccccc2cc1CCNc1cc(-c2ccc(C(=O)O)c(OCC)c2)ncn1
answerLabel: Satisfied

moleculeSmiles: CCOc1cc(-c2cc(NCCc3ccc4scc(C#N)c4c3)ncn2)ccc1C(=O)O
answerLabel: Satisfied

moleculeSmiles: CCOc1cc(-c2cc(NCCc3ccc4ccccc4c3C)ncn2)sc1CC(=O)OC
answerLabel: Not satisfied

moleculeSmiles: CCOc1cc(-c2cc(NCCc3ccc4sccc4c3)nc(C)n2)sc1C(=O)O
answerLabel: Satisfied

moleculeSmiles: CCOc1cc(-c2cc(NCCc3cc(C)c4c(c3)OCCO4)ncn2)sc1C(=O)O
answerLabel: Satisfied

Q. Would you kindly verify if IC50 of "COc1cc2ccccc2c(C)c1CCNc1cc(-c2ccc(C(=O)O)c(OC3CCC3)c2)ncn1" is strictly less than 400 nM?
A. Satisfied

Q. Also need "c1nc(NCCc2ccc3cc[nH]c3c2)cc(-c2ccc3cc[nH]c3c2)n1" , thanks.
A. Not satisfied

Q. Do the same for "CCOc1cc(-c2cc(NCCc3cc4cccnc4c(C)c3Cl)ncn2)ccc1OCC(=O)O" please
A. Satisfied

Q. Same thing, different molecule: "CCOc1cc(-c2cc(NCCc3cc4ccoc4cc3F)ncn2)ccc1CC(=O)O"
A. Satisfied
